biological target: PIN8 (Arabidopsis thaliana, UniProt Q9LFP6); construct: full-length, tag-free; model residues 1–164 and 206–367, homodimer; test: cryo-EM structure at […] Å (outward-open); apparent Kd by SSM electrophysiology competition with NPA binding current
Sequence (Q9LFP6 whole entry, the tested form may be a part): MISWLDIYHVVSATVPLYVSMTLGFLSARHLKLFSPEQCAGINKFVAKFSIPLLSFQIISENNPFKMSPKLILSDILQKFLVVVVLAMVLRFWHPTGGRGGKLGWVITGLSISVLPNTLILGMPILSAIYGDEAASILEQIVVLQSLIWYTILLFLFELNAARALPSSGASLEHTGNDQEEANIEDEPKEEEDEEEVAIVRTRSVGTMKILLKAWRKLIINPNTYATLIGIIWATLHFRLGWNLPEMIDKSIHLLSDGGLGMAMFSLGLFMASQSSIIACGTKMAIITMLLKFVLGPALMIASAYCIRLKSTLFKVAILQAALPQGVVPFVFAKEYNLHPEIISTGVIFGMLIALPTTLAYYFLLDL
pKd: −log10 of the molar value.
Readout name: pKd

1) O=C(O)Cc1c[nH]c2ccccc12: 4.40
